Origin of the recorded values: paper PMC6100724

Molecular target: T1, Scribble PDZ1 K746A (human, UniProt Q14160 719-829, K746A)
T1 construct: Scribble, human, PDZ1, aa 719-829 in pETM-11, with K746A; source: E. coli BL21 Gold (DE3), purified (Ni2+ Sepharose)
T1 sequence (Q14160 719-829 K746A): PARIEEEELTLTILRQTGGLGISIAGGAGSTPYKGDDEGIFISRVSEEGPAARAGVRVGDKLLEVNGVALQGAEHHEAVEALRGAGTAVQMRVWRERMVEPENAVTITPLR
Test: ITC; iTC200, 25°C, 20 mM HEPES pH 7.4; protein 50-100 µM in the cell, 0.64-3 mM peptide in the syringe; single-site fit, stoichiometry fixed to 0.8-1.1; triplicate
Conditions: both partners purified
Square brackets hold non-standard residues; d marks the D form. Ends that are not written are not given here. pS = N[C@@H](COP(=O)(O)O)C(=O)O
readout-name: Kd

// Kd lookup, binder = MKRLT[pS]TRL (C-terminal nine residues of RPS6KA2, human; also called pRPS6KA2; phospho-RPS6KA2; source: synthetic peptide, bought: GeneCust) [RPS6KA2 peptide MKRLTpSTRL (p-3 phosphorylated)] , result: 10 µM

Moving on to another binder below.
// Kd lookup, binder = MKRLTSTRL (C-terminal nine residues of RPS6KA2, human; source: synthetic peptide, bought: GeneCust) [RPS6KA2 peptide MKRLTSTRL (unphosphorylated)] , result: 10 µM
